Measured Percent Effect values are reported for all entries that follow.
- Target under test: AMP-activated protein kinase, AMPK (Homo sapiens) (UniProt P54646+O43741+P54619+Q9UGJ0+Q9Y478+Q13131+Q9UGI9)
- Assay info: AMP-dependent Kinase enzyme assay. An in vitro enzyme assay that detects ADP turnover that is directly proportional to AMPK activity. This uses naive AMPK that is activated during the assay with MK-8722
- Format: functional
- Design: scale not given: direction of the effect not stated beside the values
- Experimental context: 30 µM

# Compound, Unit spec, Percent Effect
measured = [
    ("Cc1noc(-c2ccc(N(C)Cc3ccncn3)nc2)n1", "%", 0.463),
    ("COCCCN1CCN(C(=O)C(c2cccc(F)c2)N(C)C)CC1 (centres undefined)", "%", -3.6),
    ("Cc1ccc(C)n1-c1ccsc1C(=O)NCC(=O)N1CCCC1", "%", 2.6),
    ("COc1ccc(NC(=O)Cc2c(C)nn(C)c2C)cc1F", "%", 1.16),
    ("O=C(NCC(O)c1cccc(O)c1)C1CCN(C2CCCCC2)CC1 (centres undefined)", "%", 0.496),
    ("CC(C)(C)C(=O)N1CCCC1(C(=O)N1CCCC1)c1cnccn1 (centres undefined)", "%", -4.87),
    ("COCCN(Cc1ccccn1)C(=O)Nc1cccnc1-n1cccn1", "%", -0.778),
    ("CCc1nnc(C(C)N2CCN(CCC(C)(C)C)CC2)o1 (centres undefined)", "%", 8.59),
    ("COC(=O)N1CCCCC1C(=O)N1CCN(c2ncccc2C)CC1 (centres undefined)", "%", -4.85),
    ("Cc1cc(-c2cnc(N3CCSCC3)nc2C(C)C)on1", "%", 16),
    ("CN(C)c1cccc(C(=O)Nc2cnn(Cc3ccncc3)c2)c1", "%", -4.34),
    ("Cc1cc(N(C)C)nc(N2CCn3c(nnc3C(C)C)C2)n1", "%", 8.26),
    ("Cn1cc(CN2CCCC(O)C2)c(-c2ccccc2F)n1 (centres undefined)", "%", 5.23),
    ("CN(Cc1nc2ccccc2[nH]1)C(=O)CN(C)c1ccc(Cl)cn1", "%", -0.551),
    ("COc1cccc(CNC(=O)C(C)N2CC(n3nc(C)cc3C)C2)c1 (centres undefined)", "%", 0.116),
    ("Cc1cc(=O)c2cc(F)ccc2n1CC(=O)O", "%", 7.06),
    ("Nc1nc(CC(=O)N2CCCC(CCc3cccc(F)c3)C2)cc(=O)[nH]1 (centres undefined)", "%", -9.77),
    ("CNC(=O)c1cccnc1NCc1ccc(Cn2cccn2)cc1", "%", -3.46),
    ("COc1ccc(CCN2CCCC(n3cncn3)C2)cc1 (centres undefined)", "%", 0.286),
    ("O=C(Cc1ccsc1)N1CCC[C@@H]1Cn1c(=O)oc2ccccc21", "%", 28.3),
    ("O=C1NCCN(CC2CCCCC2)C1CC(=O)N1CCc2n[nH]cc2C1 (centres undefined)", "%", -8.97),
    ("O=C(NCC1CCOC1)c1cc(-c2ccccc2Cl)[nH]n1 (centres undefined)", "%", 2.35),
    ("CCCC1(CO)CCCN(C(=O)CNC(N)=O)C1 (centres undefined)", "%", 8.45),
    ("Cc1ncccc1C(=O)Nc1cccc(Cn2ccccc2=O)c1", "%", 3.58),
    ("CCCN1CCC(N2CCC(Cn3cc(C4CC4)nn3)CC2)CC1", "%", 2.68),
    ("Cc1ccc(F)c2c1N(C(=O)c1ccc(S(C)(=O)=O)cc1)CCC2", "%", 0.782),
    ("c1csc(N2CCN(c3ncnc4sccc34)CC2)n1", "%", 18.5),
    ("Cc1nccn1CCCN1CCC(c2nccn2CC2CCC2)CC1", "%", -9.78),
    ("Cc1cc(C(=O)N2C[C@@H](CN(C)CCN(C)C)[C@@H](CO)C2)nc(C)n1", "%", -14.8),
    ("Cc1cc(C(=O)NC(C)Cc2ccc(N(C)C)cc2)n(C)n1 (centres undefined)", "%", 11.6),
    ("CCCNC(=O)c1[nH]nc(C2CC2)c1Br", "%", 2.02),
    ("CN(C)c1ccccc1C(=O)N1CCCC(c2ccc(C(=O)O)cc2)C1 (centres undefined)", "%", -3.47),
    ("CN(C)CCN(C)C(=O)c1cn(CC2CCCCC2)nn1", "%", 10.7),
    ("COc1ccccc1CNC(=O)C(C)N1CC(n2cc(C)cn2)C1 (centres undefined)", "%", 3.01),
    ("Cc1noc(C2CCN(Cn3cc(Cl)cn3)CC2)n1", "%", 2.75),
    ("CN(CCc1cccs1)CCc1nccs1", "%", -4.34),
    ("CC(NCc1cccc(COC2CCCC2)c1)c1cnn(C)c1 (centres undefined)", "%", 3.6),
    ("COc1ccccc1CN(Cc1nc(Cc2ccccc2)no1)C1CC1", "%", 12.8),
    ("CN(CCCO)C(=O)c1ccc2c(c1)nc(N1CC[C@H](O)C1)n2C", "%", 6.47),
    ("c1ccc(C2Cn3ccnc3CN2Cc2ncc[nH]2)cc1 (centres undefined)", "%", 11.3),
    ("Cc1sc(C(=O)NS(C)(=O)=O)cc1-c1ccc(F)cc1", "%", -4.08),
    ("CCOc1cc(F)ccc1NC1CCN(CC(F)(F)F)C1=O (centres undefined)", "%", -28.4),
    ("NC(=O)N1CCCCCC1C1CCN(c2nccc(C(F)(F)F)n2)CC1 (centres undefined)", "%", -5.81),
    ("CCCS(=O)(=O)N1CCN(CCCO)CC1", "%", 89.9),
    ("COc1ccc(C(=O)N2C[C@@H](O)[C@H](NCc3ncccc3C)C2)cc1", "%", -3.45),
    ("CCCc1ccc(CN2CCC3(CCC(=O)N(C)CC3)CC2)o1", "%", 1.5),
    ("OCCOCCNCC1(c2ccc(F)cc2)CCOC1 (centres undefined)", "%", -5.55),
    ("CN(C)c1nc2sc(C(=O)N3CCN(C(=O)OC(C)(C)C)CC3)cc2s1", "%", 63.5),
    ("CCOC(=O)C(C)Nc1ccc(CCN2CCOCC2)cc1 (centres undefined)", "%", -1.34),
]
